System: DLD1 NRF2-GOF
experimentalProtocol: TC50 cytotoxicity; higher = less toxic
testSettings: 72 h; CellTox Green cytotoxicity
Task for the reader: assign each of the following compounds its reported TC50 cytotoxicity.

Answered cases to consult:
COCCOc1cnc2ccn([C@H](C)c3nnc4c(F)cc(-c5cnn(C)c5)cn34)c(=O)c2c1 :: > 10 µM
Nc1ccn([C@@H]2O[C@H](CO)[C@@H](O)[C@@H]2O)c(=O)n1 :: > 10 µM
Cc1cc(Nc2cc(N3CCN(C)CC3)nc(Sc3ccc(NC(=O)C4CC4)cc3)n2)n[nH]1 :: 0.0311 µM

Please supply TC50 cytotoxicity for each of the following items, keeping them in order.
1. COc1cc2ncnc(Nc3ccc(F)c(Cl)c3)c2cc1NC(=O)/C=C/CN1CCCCC1
2. C[C@]12CC[C@H](O)CC1=CC[C@@H]1[C@@H]2CC[C@]2(C)C(c3cccnc3)=CC[C@@H]12
3. COc1cccc(OCCCN)c1-c1cc(Nc2cnc(C#N)cn2)n[nH]1
4. Nc1ncnc2c1c(-c1cccc(OCc3ccccc3)c1)cn2[C@H]1C[C@@H](CN2CCC2)C1
5. CCNC(=O)c1noc(-c2cc(C(C)C)c(O)cc2O)c1-c1ccc(CN2CCOCC2)cc1
6. CO[C@@H]1[C@H](N(C)C(=O)c2ccccc2)C[C@H]2O[C@]1(C)n1c3ccccc3c3c4c(c5c6ccccc6n2c5c31)C(=O)NC4

**A:**
1: > 1 µM; 2: > 5 µM; 3: 0.931 µM; 4: > 10 µM; 5: > 1 µM; 6: 0.801 µM

Look at each compound and report its TC50 cytotoxicity.
1. O=C(c1cc(Cc2n[nH]c(=O)c3ccccc23)ccc1F)N1CCN(C(=O)C2CC2)CC1
2. COC(=O)c1ccc2c(c1)NC(=O)/C2=C(\Nc1ccc(N(C)C(=O)CN2CCN(C)CC2)cc1)c1ccccc1
3. C[C@]1(c2nc3c(C(N)=O)cccc3[nH]2)CCCN1
4. CC(C)Oc1ccc(-c2nn([C@@H](C)c3oc4ccc(F)cc4c(=O)c3-c3cccc(F)c3)c3ncnc(N)c23)cc1F
5. O=C1Cc2cc(C(=O)NC3C[C@H]4CC[C@@H](C3)N4S(=O)(=O)CC3CCN(CCCC(F)(F)F)CC3)c(Cl)cc2N1 (stereo partly specified)
6. O=C(Nc1cnn2ccc(N3CCC[C@@H]3c3cc(F)ccc3F)nc12)N1CC[C@H](O)C1
7. O=C(NCc1ccncc1)C12CC3CC(C1)CC(c1ccc(Cl)cc1)(C3)C2

**A:**
> 10 µM
> 10 µM
> 10 µM
> 2.5 µM
> 10 µM
> 1 µM
> 50 µM
